src = patent US20140066410A1

target: CBP BRD (Homo sapiens); assay: Bromodomain binding affinity (tryptophan fluorescence binding assay); details: Table 1; read-out: Binding Affinity, Kd CBP
Sequence (Q92793 1085-1192 limits assumed): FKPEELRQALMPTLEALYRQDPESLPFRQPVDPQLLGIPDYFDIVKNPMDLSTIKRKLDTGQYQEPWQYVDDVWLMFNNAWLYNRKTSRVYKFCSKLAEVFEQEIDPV
property measured: Kd (µM)
# value in µM; strip the unit string

INPUT: What value of Kd on CBP BRD (Homo sapiens) does Cc1cc(/C=C/c2ccc(S(=O)(=O)Nc3ccccn3)cc2)cc(C)c1O have?
OUTPUT: 32.8

---

molecular target: BRD4-2 (Homo sapiens, UniProt O60885); assay: Bromodomain binding affinity (tryptophan fluorescence binding assay); conditions: Table 1; read-out: Binding Affinity, Kd BRD4-2
pKd: −log10 of the molar value.
property measured: pKd

INPUT: What value of pKd on BRD4-2 (Homo sapiens, UniProt O60885) does Cc1cc(C#Cc2ccc(S(=O)(=O)Nc3ccccn3)cc2)cc(C)c1O have?
OUTPUT: 5.80

INPUT: What value of pKd on BRD4-2 (Homo sapiens, UniProt O60885) does Cc1cc(/C=C/c2ccc(S(=O)(=O)Nc3ccccn3)cc2)cc(C)c1O have?
OUTPUT: > 6.00

INPUT: What value of pKd on BRD4-2 (Homo sapiens, UniProt O60885) does Cc1cc(/C=C/c2ccc(S(=O)(=O)Nc3ccccn3)cc2)c(NC(=O)OC(C)(C)C)cc1O have?
OUTPUT: > 6.00

INPUT: What value of pKd on BRD4-2 (Homo sapiens, UniProt O60885) does Cc1cc(/C=C/c2ccc(S(=O)(=O)Nc3ccccn3)cc2)c(N)cc1O have?
OUTPUT: > 6.00

---

tested on: p53; experiment: p21 luciferase assay (p53 inhibition) in U20S cells upon doxorubicin; type: cell-based; details: compounds at 50 μM; doxorubicin-treated U20S cells
property measured: inhibition at 50 µM (%)
# value in %; strip the unit string

INPUT: Name the recorded inhibition at 50 µM for Cc1cc(/N=N/c2ccc(S(=O)(=O)O)cc2)c(C)cc1O .
OUTPUT: 82.9

INPUT: Name the recorded inhibition at 50 µM for Cc1cc(C)c(S(=O)(=O)O)cc1/N=N/c1cc(C)c(O)c(C)c1C .
OUTPUT: 30.8

INPUT: Name the recorded inhibition at 50 µM for Cc1cc(C)c(S(=O)(=O)O)cc1/N=N/c1ccc(O)c(Cl)c1 .
OUTPUT: 49.7

INPUT: Name the recorded inhibition at 50 µM for CCc1cc(/N=N/c2cc(S(=O)(=O)O)c(C)cc2C)ccc1O .
OUTPUT: 25

INPUT: Name the recorded inhibition at 50 µM for Cc1cc(N=Nc2ccc(S(=O)(=O)O)cc2)cc(C(C)(C)C)c1O .
OUTPUT: 22.8

INPUT: Name the recorded inhibition at 50 µM for Cc1cc(/N=N/c2ccc(S(=O)(=O)O)cc2)cc(C)c1O .
OUTPUT: 87.4

INPUT: Name the recorded inhibition at 50 µM for CCc1cc(/N=N/c2ccc(S(=O)(=O)O)cc2)ccc1O .
OUTPUT: 25.7

INPUT: Name the recorded inhibition at 50 µM for Cc1cc(/N=N/c2ccc(S(=O)(=O)O)cc2)c(C)c(C)c1O .
OUTPUT: 38.9

INPUT: Name the recorded inhibition at 50 µM for CC(C)c1cc(N=Nc2ccc(S(=O)(=O)O)cc2)cc(C(C)C)c1O .
OUTPUT: 26.4

INPUT: Name the recorded inhibition at 50 µM for CCCc1cc(N=Nc2cc(S(=O)(=O)O)c(C)cc2C)ccc1O .
OUTPUT: 93.5

---

system: p53; assay: p21 luciferase assay (p53 inhibition) in U20S cells upon doxorubicin; format: cell-based; conditions: compared with lead / ortho-methyl analogs
property measured: Ability to inhibit p53-dependent p21 luciferase activity / p21 expression (SAR, words)

Reference set, count: 5
- molecule: "CCc1cc(/N=N/c2ccc(S(=O)(=O)O)cc2)ccc1O [MS113]"
  experimental system: "p53"
  reported result: "reduced activity"
- molecule: "Cc1cc(N=Nc2ccc(S(=O)(=O)O)cc2)cc(C(C)(C)C)c1O [MS111]"
  experimental system: "p53"
  reported result: "reduced activity"
- molecule: "CC(C)c1cc(N=Nc2ccc(S(=O)(=O)O)cc2)cc(C(C)C)c1O [MS105]"
  experimental system: "p53"
  reported result: "reduced activity"
- molecule: "Cc1cc(/N=N/c2ccc(S(=O)(=O)O)cc2)ccc1O [MS450]"
  experimental system: "p53"
  reported result: "marked increase"
- molecule: "Cc1cc(/N=N/c2ccc(S(=O)(=O)O)cc2)c(C)cc1O [MS101]"
  experimental system: "p53"
  reported result: "marked increase"

From here, focus on the item given below.
INPUT: What value of Ability to inhibit p53-dependent p21 luciferase activity / p21 expression (SAR, words) on p53 does Cc1cc(/N=N/c2ccc(S(=O)(=O)O)cc2)cc(C)c1O [MS451] have?
OUTPUT: marked increase

---

For each record, write down the corresponding Kd.
Biological target: UniProtKB Q92831
Sequence (Q92831 723-827 limits assumed): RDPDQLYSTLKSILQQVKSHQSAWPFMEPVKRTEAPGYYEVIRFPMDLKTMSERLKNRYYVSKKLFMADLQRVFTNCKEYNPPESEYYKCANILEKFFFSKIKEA
Test: Bromodomain binding affinity (tryptophan fluorescence binding assay)
Details: Table 4; read-out: PCAF (μM), bromodomain binding
# value in µM; strip the unit string

INPUT: Name the recorded Kd for Cc1cc(/N=N/c2ccc(S(=O)(=O)Nc3ccccn3)cc2)cc(C)c1O [MS0129435] .
OUTPUT: 4.5

INPUT: Name the recorded Kd for O=C(O)c1cc(/N=N/c2ccc(S(=O)(=O)Nc3ccccn3)cc2)ccc1O [Sulfasalazine (MS0123028), Sulfasalazine, reference compound] .
OUTPUT: 88

INPUT: Name the recorded Kd for Cc1cc(/N=N/c2ccc(S(=O)(=O)Nc3ccccn3)cc2)c(N)cc1O [MS0129436] .
OUTPUT: 6.8

---

For each record, write down the corresponding inhibition at 50 µM.
tested on: p53; assay: p21 luciferase assay (p53 inhibition) in U20S cells upon doxorubicin; format: cell-based; settings: compounds at 50 μM; doxorubicin-treated U20S cells
# value in %; strip the unit string

INPUT: What value of inhibition at 50 µM on p53 does Cc1cc(C)c(S(=O)(=O)O)cc1/N=N/c1cc(C)c(O)c(C)c1 have?
OUTPUT: 60.1

INPUT: What value of inhibition at 50 µM on p53 does Cc1cc(O)c(N)cc1/N=N/c1cc(S(=O)(=O)O)c(C)cc1C have?
OUTPUT: 54.8

INPUT: What value of inhibition at 50 µM on p53 does Cc1cc(/N=N/c2cc(S(=O)(=O)O)c(C)cc2C)c(C)cc1O have?
OUTPUT: 49.7

INPUT: What value of inhibition at 50 µM on p53 does Cc1cc(/N=N/c2ccc(S(=O)(=O)O)cc2)ccc1O have?
OUTPUT: 85.6

INPUT: What value of inhibition at 50 µM on p53 does Cc1cc(O)cc(C)c1/N=N/c1ccc(S(=O)(=O)O)cc1 have?
OUTPUT: 36.4

INPUT: What value of inhibition at 50 µM on p53 does Cc1cc(/N=N/c2cc(S(=O)(=O)O)c(C)cc2C)c(N)cc1O have?
OUTPUT: 104

INPUT: What value of inhibition at 50 µM on p53 does Cc1cc(C)c(S(=O)(=O)O)cc1N=Nc1cc(C)c(O)c(C(C)C)c1 have?
OUTPUT: 44.6

INPUT: What value of inhibition at 50 µM on p53 does Cc1cc(O)cc(C)c1/N=N/c1cc(Cl)c(O)c(S(=O)(=O)O)c1 have?
OUTPUT: 39

INPUT: What value of inhibition at 50 µM on p53 does Cc1cc(C)c(S(=O)(=O)O)cc1/N=N/c1c(C)cc(O)cc1C have?
OUTPUT: 54

---

molecular target: BRD4-1 (Homo sapiens, UniProt O60885); assay: Bromodomain binding affinity (tryptophan fluorescence binding assay); conditions: Table 4; read-out: BrD4-1 (μM), bromodomain binding
For each record, write down the corresponding Kd.
# value in µM; strip the unit string

INPUT: What value of Kd on BRD4-1 (Homo sapiens, UniProt O60885) does Cc1cc(/N=N/c2ccc(S(=O)(=O)Nc3ccccn3)cc2)cc(C)c1O [MS0129435] have?
OUTPUT: 1.3

INPUT: What value of Kd on BRD4-1 (Homo sapiens, UniProt O60885) does O=C(O)c1cc(/N=N/c2ccc(S(=O)(=O)Nc3ccccn3)cc2)ccc1O [Sulfasalazine (MS0123028), Sulfasalazine, reference compound] have?
OUTPUT: 54

INPUT: What value of Kd on BRD4-1 (Homo sapiens, UniProt O60885) does Cc1cc(/C=C/c2ccc(S(=O)(=O)Nc3ccccn3)cc2)c(N)cc1O [CM0000279] have?
OUTPUT: 2
